- measurement notes: Oral administration experiment (plasma concentration)
- Format: in vivo
- experimental context: (10 mg)/kg orally, male SD rats, plasma 0.5-6 hr
recorded metric: maximum blood concentration (µg/mL)

Sample answers from the record:
compound smiles: Cc1cc(NC(=O)[C@@H]2Cc3ccc(N4CCN(C)CC4)cc3CN2C(=O)C(C)(C)C)c(C)c(C)c1O
recorded metric: maximum blood concentration
measurement: 0.60

compound smiles: CCN(CC)Cc1ccc2c(c1)CN(C(=O)C(C)(C)C)[C@H](C(=O)Nc1cc(C)c(O)c(C)c1C)C2
recorded metric: maximum blood concentration
measurement: 0.48

compound smiles: CCCN(C)Cc1ccc2c(c1)CN(C(=O)C(C)C)[C@H](C(=O)Nc1cc(C)c(O)c(C)c1C)C2
recorded metric: maximum blood concentration
measurement: 0.42

compound smiles: COC1CN(Cc2ccc3c(c2)CN(C(=O)C(C)(C)C)[C@H](C(=O)Nc2cc(C)c(O)c(C)c2C)C3)C1.Cl
recorded metric: maximum blood concentration
measurement: 0.46

compound smiles: Cc1cc(NC(=O)[C@@H]2Cc3ccc(CN4CC(F)C4)cc3CN2C(=O)C(C)(C)C)c(C)c(C)c1O.Cl
recorded metric: maximum blood concentration
measurement: 0.49

[a] Cc1cc(NC(=O)[C@@H]2Cc3ccc(N(C)C)cc3CN2C(=O)C(C)(C)C)c(C)c(C)c1O.Cl
[b] Cc1cc(NC(=O)[C@@H]2Cc3ccc(N(C)C)cc3CN2C(=O)C(C)C)c(C)c(C)c1O.Cl
Problem: Parameter metric = maximum blood concentration. Return the lower-valued option from a and b . # answer = label of selected item
Result: a
(a: 0.55 µg/mL, b: 0.91 µg/mL)
